- Tested on: Caco-2
- PROTOCOL SUMMARY: cell viability relative to DMSO; higher = less toxic
- CONDITIONS USED: 72 h; 10 nM
Each item that follows carries a reported cell viability.
# value in %; strip the unit string

Example results:
• Cc1cc(C)cc(OCC2CNC(=O)O2)c1 (configuration not stated) [metaxalone] = 101
• CC(C)N(CCCNC(=O)Nc1ccc(C(C)(C)C)cc1)C[C@H]1O[C@@H](n2ccc3c(N)ncnc32)[C@H](O)[C@@H]1O = 97.2
• O=P1(NCCCl)OCCCN1CCCl (configuration not stated) [ifosfamide] = 107
• NCCCCN=C(N)N [agmatine] = 82.8
• CC1=C(C(=O)O)N2C(=O)[C@@H](NC(=O)[C@H](N)c3ccc(O)cc3)[C@H]2SC1 [cefadroxil] = 93.5
• CC(C)CC(N)=O [isovaleramide] = 92.6

Next up:
// fetch cell viability given entry COc1cc2c(NC3CCN(C(C)C)CC3)nc(N3CCC(F)(F)CC3)nc2cc1OCCCN1CCCC1 [UNC0642] 92.5
